These entries and their values trace back to ChEMBL document CHEMBL3421563.

pIC50 for assorted compounds
# test-summary: Antagonist activity at Pseudomonas aeruginosa LasR expressed in Escherichia coli BL21 DE3 after 4 to 6 hrs by GFP reporter gene assay
pIC50 field: float, defined as -log10 of concentration (mol/L).

Lab book: pIC50 of "O=C(Cc1cc(Br)cc(Br)c1OC(=O)CCCN=C=S)Nc1ccccc1[N+](=O)[O-]" noted as 3.83

Lab book: pIC50 of "O=C(Cc1cc(Br)cc(Br)c1OCCCCN=C=S)Nc1ccccc1[N+](=O)[O-]" noted as 3.84

Lab book: pIC50 of "O=C(CCCN1C(=O)C=CC1=O)Oc1c(Br)cc(Br)cc1CNC(=O)c1ccccc1[N+](=O)[O-]" noted as 5.82

Next:
Lab book: pIC50 of "O=C(CCl)NCCC(=O)Oc1c(Br)cc(Br)cc1CC(=O)Nc1ccccc1[N+](=O)[O-]" noted as 4.00

Lab book: pIC50 of "O=C(CCl)NCC(=O)Oc1c(Br)cc(Br)cc1CC(=O)Nc1ccccc1[N+](=O)[O-]" noted as 4.13

Lab book: pIC50 of "O=C(Cc1cc(Br)cc(Br)c1OC(=O)CN1C(=O)C=CC1=O)Nc1ccccc1[N+](=O)[O-]" noted as 4.06
